Values compiled from patent US9745384B2.

Recorded measurements of Kd, one per entry
TEST_SYSTEM: LSD2 (residues 51-822) (Homo sapiens, UniProt Q8NB78)
Construct: Human LSD2 (residues 51-822) was subcloned into a pFastBacl derivative; His6 (cleaved yes); made in house; host or cells: Sf9 insect cells (baculovirus)
Sequence (Q8NB78 51-822): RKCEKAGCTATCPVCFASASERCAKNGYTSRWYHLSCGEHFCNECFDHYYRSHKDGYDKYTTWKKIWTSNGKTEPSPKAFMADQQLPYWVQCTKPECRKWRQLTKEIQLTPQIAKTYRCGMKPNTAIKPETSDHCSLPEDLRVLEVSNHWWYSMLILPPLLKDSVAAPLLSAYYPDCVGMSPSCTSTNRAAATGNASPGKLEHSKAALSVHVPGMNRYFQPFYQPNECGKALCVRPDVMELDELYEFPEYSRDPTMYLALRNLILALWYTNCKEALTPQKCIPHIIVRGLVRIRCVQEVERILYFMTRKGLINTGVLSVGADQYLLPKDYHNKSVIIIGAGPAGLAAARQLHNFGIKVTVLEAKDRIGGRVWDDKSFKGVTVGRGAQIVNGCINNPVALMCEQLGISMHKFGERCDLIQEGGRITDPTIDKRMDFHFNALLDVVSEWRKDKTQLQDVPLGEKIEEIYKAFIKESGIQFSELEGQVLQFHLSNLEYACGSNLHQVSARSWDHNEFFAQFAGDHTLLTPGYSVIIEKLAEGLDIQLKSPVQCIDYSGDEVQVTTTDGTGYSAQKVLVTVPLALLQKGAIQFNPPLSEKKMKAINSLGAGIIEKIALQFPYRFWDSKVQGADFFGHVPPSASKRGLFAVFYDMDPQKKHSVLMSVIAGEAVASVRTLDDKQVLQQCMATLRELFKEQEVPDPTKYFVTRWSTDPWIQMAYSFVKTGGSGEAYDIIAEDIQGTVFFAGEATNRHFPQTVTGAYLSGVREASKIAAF
TEST_NAME: ITC binding of wild-type and mutant NPAC peptides (residues 214-225) with LSD2
ASSAY_SETUP: 15 °C; 3 mM NPAC peptide injected into 0.2 mM LSD2
Ends that are not written are not given here.
MEASUREMENT_KIND: Kd

| SEQUENCE_CHAIN | TEST_SYSTEM | MEASUREMENT_KIND | ASSAY_VALUE |
| --- | --- | --- | --- |
| DPHAHHFLLSQT [NPAC.214-225.M6] | LSD2 (residues 51-822) (Homo sapiens, UniProt Q8NB78) | Kd | 0.93 µM |
| DPHFHHFLLSQT [NPAC.214-225.WT] | LSD2 (residues 51-822) (Homo sapiens, UniProt Q8NB78) | Kd | 0.92 µM |
